- TEST_TARGET: purified human HDAC6 (Homo sapiens, UniProt Q9UBN7)
- Construct: purchased BPS Bioscience 5006
- Sequence (Q9UBN7 whole entry): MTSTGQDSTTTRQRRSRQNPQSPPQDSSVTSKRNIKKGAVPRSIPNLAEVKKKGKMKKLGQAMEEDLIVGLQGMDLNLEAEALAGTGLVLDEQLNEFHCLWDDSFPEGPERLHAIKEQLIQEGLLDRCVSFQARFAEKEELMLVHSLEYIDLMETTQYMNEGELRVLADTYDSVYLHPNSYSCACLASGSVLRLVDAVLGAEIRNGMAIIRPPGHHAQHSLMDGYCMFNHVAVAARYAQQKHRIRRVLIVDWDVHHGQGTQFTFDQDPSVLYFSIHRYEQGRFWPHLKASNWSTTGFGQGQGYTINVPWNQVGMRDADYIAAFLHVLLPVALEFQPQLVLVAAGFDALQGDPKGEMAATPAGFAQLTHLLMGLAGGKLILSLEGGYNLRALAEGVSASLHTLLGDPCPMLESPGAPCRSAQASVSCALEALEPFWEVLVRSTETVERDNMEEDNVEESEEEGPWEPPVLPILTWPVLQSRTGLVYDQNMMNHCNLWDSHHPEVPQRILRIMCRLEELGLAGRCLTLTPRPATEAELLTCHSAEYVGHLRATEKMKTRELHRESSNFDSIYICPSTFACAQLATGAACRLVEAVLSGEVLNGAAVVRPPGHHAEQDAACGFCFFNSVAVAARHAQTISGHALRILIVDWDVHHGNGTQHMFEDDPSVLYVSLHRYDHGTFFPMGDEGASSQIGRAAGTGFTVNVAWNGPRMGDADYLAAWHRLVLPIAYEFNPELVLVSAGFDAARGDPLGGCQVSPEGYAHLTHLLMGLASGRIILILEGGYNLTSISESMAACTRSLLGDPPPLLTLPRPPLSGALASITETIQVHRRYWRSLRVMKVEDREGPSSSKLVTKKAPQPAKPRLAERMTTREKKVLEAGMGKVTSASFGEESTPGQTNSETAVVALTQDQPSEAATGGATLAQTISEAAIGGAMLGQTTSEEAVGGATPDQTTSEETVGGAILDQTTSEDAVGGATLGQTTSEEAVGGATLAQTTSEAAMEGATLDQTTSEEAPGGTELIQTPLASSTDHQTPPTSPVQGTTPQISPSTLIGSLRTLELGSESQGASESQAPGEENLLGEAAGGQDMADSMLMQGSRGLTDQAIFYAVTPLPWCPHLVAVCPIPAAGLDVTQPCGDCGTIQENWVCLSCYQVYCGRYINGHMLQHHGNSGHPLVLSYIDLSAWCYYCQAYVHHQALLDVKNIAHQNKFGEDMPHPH
- TEST_METHOD_NOTES: HDAC6 Enzyme Assay
- Assay type: biochemical
- ASSAY_CONTEXT: compound concentration 0.412 μM, read-out: Percent Inhibition
ENDPOINT_NAME: inhibition at 0.412 µM

- COc1ccc(-n2ccc3ccc(C(=O)NO)cc3c2=O)cc1: 88.1%
- CC(C)n1c(-c2ccccc2)nc2cc(C(=O)NO)ccc2c1=O: 85%
- O=C(NO)c1ccc2ccn(CCCc3ccncc3)c(=O)c2c1: 93.3%
- CC(C)(C)OC(=O)N1CCC(C)(C(=O)Nc2cccc(Cn3ccc4ccc(C(=O)NO)cc4c3=O)c2)CC1: 90.1%
- CCN(CC)c1nc2ccc(C(=O)NO)cc2c(=O)n1C: 46.4%
- O=C(NO)c1ccc2ccn(CCCOc3cccc(-c4csnn4)c3)c(=O)c2c1: 94.1%
- CC(C)C(Cn1ccc2ccc(C(=O)NO)cc2c1=O)c1ccccc1 (stereo not drawn): 90.5%
- O=C(NO)c1ccc2ccn(CCOc3ccc(Cl)cc3)c(=O)c2c1: 97.7%
- O=C(NO)c1ccc2c(=O)[nH]c(C(=O)NC3CCNCC3)nc2c1: 26.2%
